Data provenance is patent US9073830B2.

# Experimental System: human 11β-HSD1 (Homo sapiens, UniProt P28845)
# Construct: 100 ug/ml human/mouse liver microsomes; from tissue; host or cells: human liver microsomes
# Sequence (P28845 whole entry): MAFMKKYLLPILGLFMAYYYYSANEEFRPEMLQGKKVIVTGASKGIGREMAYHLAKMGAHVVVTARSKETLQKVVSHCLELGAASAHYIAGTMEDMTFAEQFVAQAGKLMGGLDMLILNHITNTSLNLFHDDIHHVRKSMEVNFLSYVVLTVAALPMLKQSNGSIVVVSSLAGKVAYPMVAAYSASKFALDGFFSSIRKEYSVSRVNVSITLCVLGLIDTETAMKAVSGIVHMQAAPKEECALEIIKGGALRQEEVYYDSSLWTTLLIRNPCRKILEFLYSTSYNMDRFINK
# Measurement Description: Enzyme activity analysis on human 11β-HSD1 (HTRF cortisol, liver microsomes)
# Type: biochemical
# Test Parameters: first value of cell
Measured Attribute: log10 of IC50 (log10 of the value in µM)
Plainly stated, the numbers are log10 of IC50 given in µM.

Field: example entries. Status: answers known.
CC(C)(NS(=O)(=O)c1cccc2ccccc12)C(=O)NC1C2CC3CC(C2)CC1C3 (stereo not drawn): -0.52
CN(C(C)(C)C(=O)NC1C2CC3CC1CC(C(N)=O)(C3)C2)S(=O)(=O)c1ccccc1C(F)(F)F (stereo not drawn): -2.15
CC(C)(NS(=O)(=O)c1cccc(Cl)c1Cl)C(=O)NC1C2CC3CC(C2)CC1C3 (stereo not drawn): -1.28
NC(=O)C12CC3CC(C1)C(NC(=O)C1(NS(=O)(=O)c4ccc(OC(F)F)cc4)CCC1)C(C3)C2 (stereo not drawn): -0.14
COc1cccc(S(=O)(=O)NC(C)(C)C(=O)NC2C3CC4CC(C3)CC2C4)c1 (stereo not drawn): -0.67
CN(C(C)(C)C(=O)NC1C2CC3CC1CC(O)(C3)C2)S(=O)(=O)c1cccc(Cl)c1Cl (stereo not drawn): -2.00

Hi team, please reply with log10 of IC50 for each item in this list.
1. COc1ccc(S(=O)(=O)NC(C)(C)C(=O)NC2C3CC4CC2CC(O)(C4)C3)cc1 (stereo not drawn)
2. CC(C)(NS(=O)(=O)Cc1ccccc1[N+](=O)[O-])C(=O)NC1C2CC3CC(C2)CC1C3 (stereo not drawn)
3. CC(C)(NS(=O)(=O)c1cc(F)c(F)c(F)c1)C(=O)NC1C2CC3CC1CC(C(N)=O)(C3)C2 (stereo not drawn)
4. NC(=O)C12CC3CC(C1)C(NC(=O)C1(NS(=O)(=O)c4ccccc4Br)CCCCC1)C(C3)C2 (stereo not drawn)

Solution:
-0.71
-1.48
-0.94
-2.05

Quick one: give me log10 of IC50 for each item below, same order please.
1. NC(=O)C12CC3CC(C1)C(NC(=O)C1(NS(=O)(=O)c4ccccc4)CCCC1)C(C3)C2 (stereo not drawn)
2. CN(C(C)(C)C(=O)NC1C2CC3CC1CC(O)(C3)C2)S(=O)(=O)c1ccccc1C(F)(F)F (stereo not drawn)
3. NC(=O)C12CC3CC(C1)C(NC(=O)C1(NS(=O)(=O)c4c(Cl)cccc4Cl)CCCCC1)C(C3)C2 (stereo not drawn)

Solution:
1: -1.42; 2: -2.22; 3: -1.92
